From: paper PMC11376277

Below, each of the molecules is paired with its reported pKd value.
molecular target: EfCdaA (Enterococcus faecium, UniProt Q3Y0C9); construct: N-terminally truncated soluble DAC domain; codon-optimized synthetic DNA, pET-28a, E. coli Rosetta (DE3); tag cut with PreScission; experiment: ITC, […] binding model; settings: 25 C, pH 7.5, 20 mM Tris-HCl, 300 mM NaCl, 5% DMSO, 10 mM MgCl2
Sequence (Q3Y0C9 121-269): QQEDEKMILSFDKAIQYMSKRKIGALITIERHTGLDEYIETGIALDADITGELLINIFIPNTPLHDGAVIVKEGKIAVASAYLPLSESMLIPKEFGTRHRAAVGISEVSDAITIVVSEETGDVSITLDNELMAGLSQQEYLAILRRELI
# log scale: pKd equals minus log10 of the concentration in mol/L

- Smiles text: "Nc1ncnc2c1ncn2[C@@H]1O[C@H](COP(=O)(O)OP(=O)(O)OP(=O)(O)O)[C@@H](O)[C@H]1O"
  Measured: 3.63

Okay, next one:
What value of measured pKd is listed for CC(C)OC(=O)OCOP(=O)(CO[C@H](C)Cn1cnc2c(N)ncnc21)OCOC(=O)OC(C)C ?
5.10
